Target: IgE antibodies of the allergic patient serum pool Bor 18/100 (20 donors)
Assay: EAST inhibition, serum pool Bor 18/100
Each item that follows carries a reported inhibition value (inhibitor concentration at 25% inhibition).
# unit: mol/L | format: bare number

**Query** Determine its reported inhibition value (inhibitor concentration at 25% inhibition): recombinant Phl p 5b (wild type) (protein) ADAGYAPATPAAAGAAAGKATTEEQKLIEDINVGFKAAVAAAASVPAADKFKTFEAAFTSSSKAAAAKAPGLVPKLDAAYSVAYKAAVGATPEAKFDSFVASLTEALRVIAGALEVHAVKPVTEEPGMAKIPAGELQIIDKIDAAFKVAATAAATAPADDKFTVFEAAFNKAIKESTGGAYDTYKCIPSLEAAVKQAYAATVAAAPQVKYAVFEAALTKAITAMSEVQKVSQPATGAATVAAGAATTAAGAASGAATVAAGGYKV
**Result** 2e-10

**Query** Consider the binder rPhl p 5b point mutant PM3 (A13C) (protein) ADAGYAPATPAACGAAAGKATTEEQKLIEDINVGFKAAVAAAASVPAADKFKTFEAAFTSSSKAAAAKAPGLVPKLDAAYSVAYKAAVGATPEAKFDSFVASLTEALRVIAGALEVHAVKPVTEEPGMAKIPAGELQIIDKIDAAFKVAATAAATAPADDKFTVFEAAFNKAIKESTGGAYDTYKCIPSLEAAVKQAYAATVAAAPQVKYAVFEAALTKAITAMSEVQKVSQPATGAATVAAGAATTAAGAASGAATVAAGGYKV and give its recorded inhibition value (inhibitor concentration at 25% inhibition).
**Result** 2e-10
